System: COLO 205 colon
Test protocol: NCI tumour cell line growth inhibition, 48 h
Measurement kind: TGI

# example entries with known answers
>  <Compound>
O=C(O)C1CCC(=O)N1S(=O)(=O)c1ccccc1 (stereo unspecified)

>  <Assay system>
COLO 205 colon

>  <Measured result>
> 100 µM

$$$$
>  <Compound>
OC(c1cc2ccccc2[nH]1)C1(c2cccnc2)SCCCS1 (stereo unspecified)

>  <Assay system>
COLO 205 colon

>  <Measured result>
> 100 µM

$$$$
>  <Compound>
COC(=O)c1c2c(cc3c1CC1(C3)Cc3cc4c(c(C(C)=O)c3C1)CCC4)C=CC2 (stereo unspecified)

>  <Assay system>
COLO 205 colon

>  <Measured result>
> 31.6 µM

$$$$
>  <Compound>
NC(=O)C(=CNC(=S)Nc1ccc(Cl)c(Cl)c1)C(N)=O

>  <Assay system>
COLO 205 colon

>  <Measured result>
> 100 µM

$$$$
>  <Compound>
CN1C(=O)C(C(N)=O)C2CC1(C)Oc1ccccc12 (stereo unspecified)

>  <Assay system>
COLO 205 colon

>  <Measured result>
> 100 µM

$$$$

GET TGI where system = COLO 205 colon and item = CCOC(=O)/C(N=Nc1ccc(-n2c(C)nc3ccc(Br)cc3c2=O)cc1)=C(/C)O
> 100 µM

Report TGI from COLO 205 colon testing of CC(=O)OC12c3ccccc3-c3ccccc3C1C(C(=O)O)C2(Cl)C(=O)O (stereo unspecified)
> 10 µM

Please look at C=CCc1cc(C=C(C#N)C#N)cc(OC)c1O and tell me its recorded TGI on COLO 205 colon.
> 100 µM

Give COLO 205 colon TGI for the following compound: O=c1oc2ccccc2c(O)c1/C=N/C(=S)NCc1ccccc1
> 100 µM

Check COLO 205 colon data and give TGI for Nc1c(C(=O)N/N=C/c2ccc(Cl)cc2)sc(=S)n1-c1ccccc1 .
> 100 µM

Report value only: TGI, COLO 205 colon, COc1cc(/C=C/c2nc(N)nnc2C)cc(OC)c1OC
> 53 µM

Report the value of TGI obtained on COLO 205 colon for COC1=CC(=O)c2c(cc(COP(=O)(OCC3OC(n4cc(F)c(=O)[nH]c4=O)CC3O)N(C)CCCCCl)n2C)C1=O (stereo unspecified) .
> 39.8 µM

====

Tested on: OVCAR-4 ovarian
Test protocol: NCI tumour cell line growth inhibition, 48 h; in the data active means GI50 below about 0.43 µM; inactive means the rest
Pick from active, inactive when you respond.

>  <Compound>
CCCCCCCCCCC/C=C\C[C@H](O)C/C=C1/C(=O)C=C[C@@H]1C/C=C\CCCC(=O)OC

>  <Assay system>
OVCAR-4 ovarian

>  <Category label>
inactive

$$$$

Here's the next entry for you.
In this assay, the call recorded for O=C(N=Nc1c(O)[nH]c2ccccc12)c1oc2ccccc2c1CN1CCN(c2ccccc2)CC1 was what?
inactive

====

Test system: HOP-92 NSCLC
Test protocol: NCI tumour cell line growth inhibition, 48 h
Collected TGI values appear next to each entry.
Could you give me the number in µM? Just the number is fine.

Example compounds with recorded TGI:
>  <Compound>
O=C(/C=C/c1ccccc1Cl)c1cccc2ccccc12

>  <Units label>
µM

>  <Measured result>
34.9

$$$$
>  <Compound>
CC[C@@H](C(=O)[C@H](C)[C@H](O)[C@@H](C)[C@H]1O[C@H]([C@@H](CC)C(=O)O)CC[C@H]1C)C1O[C@]2(C=C[C@@H](O)[C@]3(CC[C@@](C)([C@H]4CC[C@](O)(CC)[C@H](C)O4)O3)O2)[C@H](C)C[C@@H]1C (stereo not given in full)

>  <Units label>
µM

>  <Measured result>
5.78

$$$$
>  <Compound>
C=C1CCC2C3(C)COC(c4c(OC)cccc4OC)OC3CCC2(C)C1C/C=C1/C(=O)OCC1O (stereo not given)

>  <Units label>
µM

>  <Measured result>
8.51

$$$$
>  <Compound>
Cc1cc2c(C(C)C)c(O)c(O)c(C=NCCO)c2c(O)c1-c1c(C)cc2c(C(C)C)c(O)c(O)c(C=NCCO)c2c1O

>  <Units label>
µM

>  <Measured result>
5.07

$$$$
>  <Compound>
O=C1C(Cl)C2(CC(/C=C/c3ccccc3O)=NN2c2cccc(S(=O)(=O)O)c2)N1c1nc2ccccc2s1 (stereo not given)

>  <Units label>
µM

>  <Measured result>
37

$$$$

Note down TGI recorded for CCCC[n+]1c(/C=C\c2c(OC)cc(OC)cc2OC)ccc2ccccc21
4.8

Return TGI (reported value) for this compound: COc1cccc2c3ccccc3c3nc[nH]c3c12
61.9

Could you please provide reported TGI for C=C1CC[C@@H]2[C@](C)(COC(C)=O)[C@H](OC(C)=O)CC[C@@]2(C)[C@@H]1CC(Nc1ccc(S(=O)(=O)Nc2cc(C)on2)cc1)C1=CCOC1=O (stereo not given in full) ? Thanks!
8

Give the value of TGI reported for the following: Cc1[nH]c(C(=O)Nc2ccccc2OC2CCNCC2)c(Cl)c1Cl
1.79

Give TGI for the following compound: Nc1nc2c(nnn2C2OC(CO)C(O)C2O)c(=O)[nH]1 (stereo not given)
68.4

Find the measured TGI of CCC(C)[C@H](NC(=O)NC(=O)NC(=O)CI)C(=O)OC (stereo not given in full) and report it.
7.3

Tell me measured TGI for NC1CCC(Nc2nc(NCc3cc(Cl)ccc3O)c3ncn(C4CCCC4)c3n2)CC1 (stereo not given) please.
0.63

# return recorded TGI for entry COC(=O)C1=CC2CC1C(S(=O)(=O)c1ccccc1)C2S(=O)(=O)c1ccccc1 (stereo not given)
29.4
